- target-system: Gal(b1-3)Gal(b1-4)GlcNAc
- experiment: glycan array binding signal (z-score within array); higher = stronger binding
- particulars: glycan notation: IUPAC condensed, linker removed
The entries come from a sample that favours the strongest signals as a whole.
Listed here: items and their measured glycan array binding signal (z-score).
Could you respond with only the numeric value?

binder	test-value
BDCA2 ex-domain (Homo sapiens) (protein) MASHHHHHHIEGRGLNDIFEAQKIEWHESLVPRGSCPTPWTSFQSSCYFISTGMQSWTKSQKNCSVMGADLVVINTREEQDFIIQNLKRNSSYFLGLSDPGGRRHWQWVDQTPYNENVTFWHSGEPNNLDERCAIINFRSSEEWGWNDIHCHVPQKSICKMKKIY	-0.245
CGL (Crenomytilus grayanus), H2FH31 (protein) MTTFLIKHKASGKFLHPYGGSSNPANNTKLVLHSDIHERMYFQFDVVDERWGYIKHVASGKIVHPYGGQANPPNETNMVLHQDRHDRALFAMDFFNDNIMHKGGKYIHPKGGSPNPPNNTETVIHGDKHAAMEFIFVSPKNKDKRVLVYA	-0.077

stdin: Which glycan array binding signal (z-score) is listed for Nictaba (Nicotiana tabacum), Q94EW1 (protein) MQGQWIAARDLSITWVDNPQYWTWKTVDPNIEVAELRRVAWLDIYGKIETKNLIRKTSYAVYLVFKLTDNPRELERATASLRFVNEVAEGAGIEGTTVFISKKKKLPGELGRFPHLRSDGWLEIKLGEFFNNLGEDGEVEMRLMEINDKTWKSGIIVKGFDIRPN ?
stdout: -0.321
